Measurement target: TNFα (Homo sapiens)
Sequence (P01375 77-233 limits assumed): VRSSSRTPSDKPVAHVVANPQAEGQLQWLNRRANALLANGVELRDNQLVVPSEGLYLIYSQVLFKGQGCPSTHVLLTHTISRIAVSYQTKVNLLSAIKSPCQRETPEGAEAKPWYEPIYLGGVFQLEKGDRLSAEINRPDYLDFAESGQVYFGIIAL
Assay explanation: TNF-Induced HEK-Blue Assay
Format: cell-based
Protocol conditions: HEK-Blue-CD40L cells, NF-kB-driven secreted alkaline phosphatase reporter; TNFα 0.5 ng/ml; 18 h; read-out: TNF induced HEK-Blue assay IC50 value
Starred links: 1 amine or outer side, 2 acyl side, 3 side chain; linkers in the order of their positions; H or OH if unused. Positions of bridges follow the written chain, without caps; N, C: chain ends. Non-standard residues stand in square brackets, D forms with d. Residues, ends and D or L forms follow the SMILES beside them. X79 = O=C(O)C1CCCC(C(=O)Nc2ccc(-c3ccc(C[C@H](N[*:1])C(=O)[*:2])cc3)cc2)C1; Bip(4'-NHAc) = CC(=O)Nc1ccc(-c2ccc(C[C@H](N)C(=O)O)cc2)cc1; Pro(cis-4-Ph) = O=C(O)[C@@H]1C[C@H](c2ccccc2)CN1; Ala(morpholin-4-yl) = N[C@@H](CN1CCOCC1)C(=O)O; Phe(3-CONH2) = NC(=O)c1cccc(C[C@H](N)C(=O)O)c1; Bip = N[C@@H](Cc1ccc(-c2ccccc2)cc1)C(=O)O; Val(3-OH) = CC(C)(O)[C@H](N)C(=O)O; 3Pal = N[C@@H](Cc1cccnc1)C(=O)O; 2Thi = N[C@@H](Cc1cccs1)C(=O)O; Cha = N[C@@H](CC1CCCCC1)C(=O)O; Tle = CC(C)(C)[C@H](N)C(=O)O; Sar = CNCC(=O)O
Exercise: state measured IC50 for each of the compounds provided.

Entry CC[C@H](C)[C@@H]1NC(=O)[C@H](C(C)C)NC(=O)[C@@H]2CCCN2C(=O)[C@H](C(C)C)NC(=O)[C@H](CCCNC(=N)N)NC(=O)[C@H](CC(=O)O)NC(=O)[C@H](Cc2ccc(O)cc2)NC(=O)CN(C)C(=O)[C@H](Cc2ccc(-c3ccccc3)cc2)NC(=O)[C@H](Cc2ccc(-c3ccccc3)cc2)NC(=O)[C@H](Cc2ccccc2)NC(=O)CSC[C@@H](C(=O)NCC(N)=O)NC(=O)[C@H](CC(C)C)NC1=O [Example 19] ({CH2CO}-F[Bip][Bip][Sar]YDRVPVILCG-NH2; thioether N-13) , system TNFα (Homo sapiens): what IC50 was measured?
200 to 2000 nM

Continue with CC(C)C[C@@H]1NC(=O)[C@H](CCCNC(=N)N)NC(=O)[C@H](C(C)C)NC(=O)[C@H](C(C)C)NC(=O)[C@H](C(C)C)NC(=O)[C@H](CCCNC(=N)N)NC(=O)[C@H](CC(=O)O)NC(=O)[C@@H]2CCCN2C(=O)CN(C)C(=O)[C@H](Cc2ccc(-c3ccccc3)cc2)NC(=O)[C@H](Cc2ccc(-c3ccccc3)cc2)NC(=O)[C@H](Cc2ccccc2)NC(=O)CSC[C@@H](C(=O)NCC(N)=O)NC1=O [Example 17] ({CH2CO}-F[Bip][Bip][Sar]PDRVVVRLCG-NH2; thioether N-13)
200 to 2000 nM

Continue with CC(C)C[C@@H]1NC(=O)[C@H](Cc2ccc(O)cc2)NC(=O)[C@H](C(C)C)NC(=O)[C@@H]2CCCN2C(=O)[C@H](Cc2cccnc2)NC(=O)[C@@H](CCCNC(=N)N)NC(=O)[C@H](CC(=O)O)NC(=O)[C@H](Cc2ccc(O)cc2)NC(=O)CN(C)C(=O)[C@H](Cc2ccc(-c3ccccc3)cc2)NC(=O)[C@H](Cc2ccc(-c3ccccc3)cc2)NC(=O)[C@H](CN2CCOCC2)NC(=O)CSC[C@@H](C(=O)NCC(N)=O)NC1=O [Example 118] ({CH2CO}-[Ala(morpholin-4-yl)][Bip][Bip][Sar]YD[dR][3Pal]PVYLCG-NH2; thioether N-13)
200 to 2000 nM

Continue with CC(=O)Nc1ccc(-c2ccc(C[C@@H]3NC(=O)[C@H](Cc4ccc(-c5ccccc5)cc4)NC(=O)[C@H](C(C)(C)O)NC(=O)CSC[C@@H](C(=O)NCC(N)=O)NC(=O)[C@H](CC(C)C)NC(=O)[C@H](CCCNC(=N)N)NC(=O)[C@H](C(C)C)NC(=O)[C@@H]4CCCN4C(=O)[C@H](C(C)C)NC(=O)[C@H](CCCNC(=N)N)NC(=O)[C@H](CC(=O)O)NC(=O)[C@H](Cc4ccc(O)cc4)NC(=O)CN(C)C3=O)cc2)cc1 [Example 193] ({CH2CO}-[Val(3-OH)][Bip][Bip(4'-NHAc)][Sar]YDRVPVRLCG-NH2; thioether N-13)
50 to 200 nM

Continue with CC[C@H](C)[C@@H]1NC(=O)[C@@H](CCCNC(=N)N)NC(=O)[C@H](CC(=O)O)NC(=O)[C@H](Cc2ccc(O)cc2)NC(=O)CN(C)C(=O)[C@H](Cc2ccc(-c3ccc(NC(C)=O)cc3)cc2)NC(=O)[C@H](Cc2ccc(-c3ccccc3)cc2)NC(=O)[C@H](C(C)(C)C)NC(=O)CSC[C@@H](C(=O)NCC(N)=O)NC(=O)[C@H](CC(C)C)NC(=O)[C@H](Cc2cccs2)NC(=O)[C@H](C(C)C)NC(=O)[C@@H]2CCCN2C1=O [Example 260] ({CH2CO}-[Tle][Bip][Bip(4'-NHAc)][Sar]YD[dR]IPV[2Thi]LCG-NH2; thioether N-13)
< 50 nM

Continue with CC[C@H](C)[C@@H]1NC(=O)[C@@H](CCCNC(=N)N)NC(=O)[C@H](CC(=O)O)NC(=O)[C@H](Cc2cnc[nH]2)NC(=O)CN(C)C(=O)[C@H](Cc2ccc(-c3ccc(NC(=O)C4CCCC(C(=O)O)C4)cc3)cc2)NC(=O)[C@H](Cc2ccc(-c3ccccc3)cc2)NC(=O)[C@H](CC2CCCCC2)NC(=O)CSC[C@@H](C(=O)NCC(N)=O)NC(=O)[C@H](CC(C)C)NC(=O)[C@H](Cc2cnc[nH]2)NC(=O)[C@H](C(C)C)NC(=O)[C@@H]2CCCN2C1=O (some centres unmarked) [Example 317] ({CH2CO}-[Cha][Bip][X79][Sar]HD[dR]IPVHLCG-NH2; thioether N-13)
50 to 200 nM

Continue with CC(=O)Nc1ccc(-c2ccc(C[C@@H]3NC(=O)[C@H](Cc4ccc(-c5ccccc5)cc4)NC(=O)[C@H](CC4CCCCC4)NC(=O)CSC[C@@H](C(=O)NCC(N)=O)NC(=O)[C@H](CC(C)C)NC(=O)[C@H](Cc4cccc(C(N)=O)c4)NC(=O)[C@H](C(C)C)NC(=O)[C@@H]4CCCN4C(=O)[C@H](C(C)C)NC(=O)[C@@H](CCCNC(=N)N)NC(=O)[C@H](CC(=O)O)NC(=O)[C@@H]4CCCN4C(=O)CN(C)C3=O)cc2)cc1 [Example 240] ({CH2CO}-[Cha][Bip][Bip(4'-NHAc)][Sar]PD[dR]VPV[Phe(3-CONH2)]LCG-NH2; thioether N-13)
50 to 200 nM

Continue with CC(C)C[C@@H]1NC(=O)[C@H](CCCNC(=N)N)NC(=O)[C@H](C(C)C)NC(=O)[C@@H]2CCCN2C(=O)[C@H](C(C)C)NC(=O)[C@H](CCCNC(=N)N)NC(=O)[C@H](CC(=O)O)NC(=O)[C@@H]2C[C@H](c3ccccc3)CN2C(=O)CN(C)C(=O)[C@H](Cc2ccc(-c3ccccc3)cc2)NC(=O)[C@H](Cc2ccc(-c3ccccc3)cc2)NC(=O)[C@H](CN2CCOCC2)NC(=O)CSC[C@@H](C(=O)NCC(N)=O)NC1=O [Example 96] ({CH2CO}-[Ala(morpholin-4-yl)][Bip][Bip][Sar][Pro(cis-4-Ph)]DRVPVRLCG-NH2; thioether N-13)
50 to 200 nM
